target: T1, recombinant rhesus GM-CSF protein (rhesus, UniProt Q9GL44 18-144); experiment: ELISA, rhesus GM-CSF coated at 1 ug/ml
T1 construct: Bought recombinant protein (Genscript)
T1 sequence (Q9GL44 entry or part of it limits assumed): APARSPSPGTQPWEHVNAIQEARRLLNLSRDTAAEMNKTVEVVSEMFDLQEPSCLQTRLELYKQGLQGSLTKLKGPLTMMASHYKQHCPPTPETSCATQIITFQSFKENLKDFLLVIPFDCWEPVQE
Quick reference for EC50 among some binders
Value type: EC50 (ng/mL)

{"columns": ["Binder", "Value type", "Reported"],
 "data": [
  ["Hu23F4-27 (antibody, V domains shown, Humanized) VH: EVQLVQSGAEVKKPGASVKVSCKASGYTFTSHYLHWVRQAPGQGLEWMGWIFPGDDKTKYNEKFKGRVTMTSDTSISTAYMELSRLRSDDTAVYYCARGTKYLNWNFDVWGQGTTVTVSS VL: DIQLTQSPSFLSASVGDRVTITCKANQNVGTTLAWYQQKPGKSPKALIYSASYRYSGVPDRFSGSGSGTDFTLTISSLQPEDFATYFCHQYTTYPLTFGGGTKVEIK", "EC50", 6.25],
  ["Hu50C5-23 (antibody, V domains shown, Humanized; also called 35230Hu50C5-23) VH: EVQLVQSGAEVKKPGSSVKVSCKASGYIFTPYSIHWVRQAPGQGLEWIGYINPSTGYIEYNQHFKDRTTLTADKSTSTAYMELRSLRSEDTAVYYCARGGDYEGYFDYWGQGTTVTVSS VL: DIQMTQSPSSLSASVGDRVTITCRLNENIYSFLAWYQQKPGKAPKLLVYNAETLAEDVPSRFSGSGSGTDFTLTISSLQPEDFATYYCQQHYGTPYTFGGGTKVEIK", "EC50", 21.6],
  ["Hu23F4-13 (antibody, V domains shown, Humanized) VH: EVQLVQSGAEVKKPGATVKISCKVSGYTFTSHYLHWVQQAPGKGLEWIGWIFPGDDKTKYNEKFKGRATLTSDTSTDTAYMELSSLRSEDTAVYYCARGTKYLNWNFDVWGQGTTVTVSS VL: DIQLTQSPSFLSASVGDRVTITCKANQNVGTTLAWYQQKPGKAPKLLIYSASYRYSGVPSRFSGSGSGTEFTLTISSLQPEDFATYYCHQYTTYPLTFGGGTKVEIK", "EC50", 7.44]
]}
